# Tested on: Mus musculus
# test.description: Induction of catalepsy in ip dosed Mus musculus albino (mouse) measured at 30 min interval until 120 min and at the end of 240 min
# Assay type: organism-based
# study.conditions: in vivo
endpoint: ED50

Example results:
NC(=O)c1ccccc1OCCCN1CCN(c2ccccc2)CC1
> 60 mg/kg
NC(=O)c1ccccc1OCCN1CCN(c2ccccc2)CC1
50 mg/kg
COc1ccccc1N1CCN(CCCOc2ccccc2C(N)=O)CC1
> 60 mg/kg

Look up ED50 for the entries below, preserving their order.
1. COc1ccccc1N1CCN(CCCCOc2ccccc2C(N)=O)CC1
2. Cc1cccc(N2CCN(CCOc3ccccc3C(N)=O)CC2)c1
3. COc1ccccc1N1CCN(CCOc2ccccc2C(N)=O)CC1

## Result
1. > 70 mg/kg
2. 70 mg/kg
3. 100 mg/kg

* * *

Please provide measured ED50 for the entries that follow.
# System: Mus musculus
# test.description: Antipsychotic activity in ip dosed Mus musculus Swiss albino (mouse) assessed as inhibition of […] -induced climbing behavior pretreated 10 min prior to 2.5 mg/kg, ip apomorphine administration measured at 5 min intervals for up to 20 min starting 10 min after apomorphine challenge
# Format: functional
# study.conditions: route intraperitoneal
Answers are plain numbers, in mg/kg.

Example results:
COc1ccccc1N1CCN(CCCOc2ccccc2C(N)=O)CC1
50
COc1ccccc1N1CCN(CCCCOc2ccccc2C(N)=O)CC1
50.8
Cc1cccc(N2CCN(CCOc3ccccc3C(N)=O)CC2)c1
40
COc1ccccc1N1CCN(CCOc2ccccc2C(N)=O)CC1
40
Cc1ccc(N2CCN(CCOc3ccccc3C(N)=O)CC2)cc1
40.5
NC(=O)c1ccccc1OCCN1CCN(c2ccccc2)CC1
35.3

Now turn to the next compound.
## Task Return value of ED50 for input CN1CCN(C2=Nc3cc(Cl)ccc3Nc3ccccc32)CC1 , no commentary.
## Result 8.7

* * *

# Test system: Mus musculus
# test.description: Induction of catalepsy in ip dosed Mus musculus albino (mouse) measured at 30 min interval until 120 min and at the end of 240 min
# Format: organism-based
# study.conditions: in vivo
Please provide measured ED50 for the entries that follow.

Example results:
NC(=O)c1ccccc1OCCCCN1CCN(c2ccccc2)CC1
> 60 mg/kg
NC(=O)c1ccccc1OCCN1CCN(c2ccccc2Cl)CC1
> 80 mg/kg

Look up ED50 for the entries below, preserving their order.
1. Cc1ccc(N2CCN(CCOc3ccccc3C(N)=O)CC2)cc1
2. COc1cccc(N2CCN(CCOc3ccccc3C(N)=O)CC2)c1

## Result
["> 80 mg/kg", "> 80 mg/kg"]
